- Test system: Plasmodium berghei
- assayInfo: Screen against P. berghei liver stage (PbLuc), transformed with Luciferase, at 10uM
- Assay type: functional, HepG2
- assayContext: tested at 10 uM
About 8,600 (12%) of roughly 69,000 compounds showed an effect of 50% or more. Only a selection was taken, and strong results are over-represented in it overall.
Note to self: INHIBITION under 20% means label 1, ties and anything higher get label 0.

molecule=c1ccc(OCCNc2ncnc3sc4c(c23)CCNC4)cc1 labelclass="label 0"
molecule=CS(=O)(=O)CCCN(CCc1cccc(F)c1)C1CC1 labelclass="label 1"
molecule=O=C(c1cc(-c2cn[nH]c2)nc2cc(F)ccc12)N1CCS(=O)(=O)CC1 labelclass="label 0"
molecule=CCc1ccc2nc(-c3cnn(C)c3)cc(C(=O)N3CCCC3)c2c1 labelclass="label 1"
molecule="Cc1cccnc1CCNCC1(O)CCCN(CC2CCCCC2)C1=O (centres undefined)" labelclass="label 0"

input: # TODO verify INHIBITION < 20% strictly for this molecule: COc1cccc(-c2cc(C(=O)N3N=C(C)CC3(O)C(F)(F)F)[nH]n2)c1 (centres undefined)
output: label 0

input: # TODO verify INHIBITION < 20% strictly for this molecule: "CC(C)c1nnc2ccc(N3CCC(C(=O)O)CC3)nn12"
output: label 1

input: # TODO verify INHIBITION < 20% strictly for this molecule: "COCCNC(=O)NCc1ccc(-n2ccc(C(F)(F)F)n2)cc1"
output: label 1

input: # TODO verify INHIBITION < 20% strictly for this molecule: "Cc1nonc1OCCNc1ncnc2sc3c(c12)CCNC3"
output: label 1

input: # TODO verify INHIBITION < 20% strictly for this molecule: CC(C)(C)CN1CCCC(O)(CN2CCc3[nH]ncc3C2)C1=O (centres undefined)
output: label 0

input: # TODO verify INHIBITION < 20% strictly for this molecule: "O=C(NCc1ccc(N2CC=CC2)cc1)Nc1nnc(C2CC2)s1"
output: label 1

input: # TODO verify INHIBITION < 20% strictly for this molecule: "O=C1CN(c2ccc(CNC(=O)NCc3ccoc3)cc2)CCN1"
output: label 1

input: # TODO verify INHIBITION < 20% strictly for this molecule: "O=C1CN(c2ccc(CNC(=O)Nc3nnc(C4CC4)s3)cc2)CCN1"
output: label 0

input: # TODO verify INHIBITION < 20% strictly for this molecule: Cc1ccc(S(=O)(=O)N2CCOCC2C#N)c(F)c1 (centres undefined)
output: label 1

====

- Tested on: Plasmodium berghei
- assayInfo: Screen against P. berghei liver stage (PbLuc), transformed with Luciferase, at 10uM
- Type: functional, HepG2
- assayContext: tested at 10 uM
The campaign covered roughly 69,000 compounds. About 8,600 (12%) showed an effect of 50% or more. The sample holds strong results, similar compounds and a random draw of the others, so the mix is not that of the screen.
Param threshold (20%) applies to INHIBITION; output 1.0 when value >= threshold, 0.0 when value < threshold.

Use these answered entries as a reference point.
molecule=CS(=O)(=O)N1C[C@@H]2COC[C@]2(CN2CCOCC2)C1 labelclass=1.0
molecule=O=C(CN1CCc2c(ncn2C2CC2)C1)NC1CCN(C2CC2)CC1 labelclass=1.0
molecule=Cc1ccc(NC2CCN(C(=O)c3cccnc3O)CC2)nn1 labelclass=0.0

input: Does the molecule Cc1ccc(CC(=O)N2Cc3nccn3CC(CN(C)C)C2)cc1 (configuration not stated) have recorded INHIBITION that is 20% or more?
output: 0.0

input: Does the molecule "O[C@H]1CN(Cc2cc3ccccc3o2)CC[C@@]12CCCO2" have recorded INHIBITION that is 20% or more?
output: 0.0

input: Does the molecule "CCCS(=O)(=O)N1C[C@@H]2COC[C@]2(CN2CCOCC2)C1" have recorded INHIBITION that is 20% or more?
output: 0.0

input: Does the molecule "NC(=O)C1=NC2=NS(=O)(=O)c3ccccc3N2N1Cc1ccc(Cl)cc1" have recorded INHIBITION that is 20% or more?
output: 1.0

input: Does the molecule "Cn1cnc2c1CCN(Cc1csc(-c3ccccc3)n1)C2" have recorded INHIBITION that is 20% or more?
output: 1.0

input: Does the molecule "CCN(Cc1nonc1C)C(=O)Cn1nc(C(F)(F)F)cc1C" have recorded INHIBITION that is 20% or more?
output: 1.0

input: Does the molecule "COCCCNC(=O)N1CCN(C(=O)c2nsc3ccc(C)cc23)CC1" have recorded INHIBITION that is 20% or more?
output: 0.0
